Target: T1, Boi2, P39969
T1 sequence (P39969 32-116, looked up): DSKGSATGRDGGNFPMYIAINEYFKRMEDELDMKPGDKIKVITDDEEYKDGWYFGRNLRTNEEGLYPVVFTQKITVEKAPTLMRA
Experiment: SPOT array
Conditions: median of control spots 1161
Reported Metric: SPOT intensity

Please review the following examples before continuing.
IKTRSVPKIPSIESV    1
LKPPIGRPPKFPKSP    0
TEVPIPRRPPPPQAA    0
YSRKKLPVVLSKMTL    1
HVRRSILALPLGVLL    1

[I] DHPKGPPPPPPPDEK
[II] AKDLIVPRRPEWNEG
Prompt: Param metric = SPOT intensity; output whichever of I , II has the minimum value. Your choice should be expressed through its label.
Response: I
(I: 0, II: 1640)

[I] LLRRTIPKRPFYHVL
[II] GDHPKGPPPPPPPDE
[III] LASNSPPVYPKRIRH
[IV] SAPDIPPRSPNRNAH
[V] TKRKRPARLIFYDSK
Prompt: # rank by SPOT intensity, ascending (min first) Answer by naming the labels in the order asked.
Response: III, II, I, V, IV
(III: 0, II: 1, I: 2, V: 9, IV: 312)
